Origin of the recorded values: patent WO2012019024A2

# systemName: T1, human HER3 (human, UniProt P21860 20-1342)
# T1 construct: also called huHER3; HER3 antigen
# T1 sequence (P21860 20-1342 limits assumed): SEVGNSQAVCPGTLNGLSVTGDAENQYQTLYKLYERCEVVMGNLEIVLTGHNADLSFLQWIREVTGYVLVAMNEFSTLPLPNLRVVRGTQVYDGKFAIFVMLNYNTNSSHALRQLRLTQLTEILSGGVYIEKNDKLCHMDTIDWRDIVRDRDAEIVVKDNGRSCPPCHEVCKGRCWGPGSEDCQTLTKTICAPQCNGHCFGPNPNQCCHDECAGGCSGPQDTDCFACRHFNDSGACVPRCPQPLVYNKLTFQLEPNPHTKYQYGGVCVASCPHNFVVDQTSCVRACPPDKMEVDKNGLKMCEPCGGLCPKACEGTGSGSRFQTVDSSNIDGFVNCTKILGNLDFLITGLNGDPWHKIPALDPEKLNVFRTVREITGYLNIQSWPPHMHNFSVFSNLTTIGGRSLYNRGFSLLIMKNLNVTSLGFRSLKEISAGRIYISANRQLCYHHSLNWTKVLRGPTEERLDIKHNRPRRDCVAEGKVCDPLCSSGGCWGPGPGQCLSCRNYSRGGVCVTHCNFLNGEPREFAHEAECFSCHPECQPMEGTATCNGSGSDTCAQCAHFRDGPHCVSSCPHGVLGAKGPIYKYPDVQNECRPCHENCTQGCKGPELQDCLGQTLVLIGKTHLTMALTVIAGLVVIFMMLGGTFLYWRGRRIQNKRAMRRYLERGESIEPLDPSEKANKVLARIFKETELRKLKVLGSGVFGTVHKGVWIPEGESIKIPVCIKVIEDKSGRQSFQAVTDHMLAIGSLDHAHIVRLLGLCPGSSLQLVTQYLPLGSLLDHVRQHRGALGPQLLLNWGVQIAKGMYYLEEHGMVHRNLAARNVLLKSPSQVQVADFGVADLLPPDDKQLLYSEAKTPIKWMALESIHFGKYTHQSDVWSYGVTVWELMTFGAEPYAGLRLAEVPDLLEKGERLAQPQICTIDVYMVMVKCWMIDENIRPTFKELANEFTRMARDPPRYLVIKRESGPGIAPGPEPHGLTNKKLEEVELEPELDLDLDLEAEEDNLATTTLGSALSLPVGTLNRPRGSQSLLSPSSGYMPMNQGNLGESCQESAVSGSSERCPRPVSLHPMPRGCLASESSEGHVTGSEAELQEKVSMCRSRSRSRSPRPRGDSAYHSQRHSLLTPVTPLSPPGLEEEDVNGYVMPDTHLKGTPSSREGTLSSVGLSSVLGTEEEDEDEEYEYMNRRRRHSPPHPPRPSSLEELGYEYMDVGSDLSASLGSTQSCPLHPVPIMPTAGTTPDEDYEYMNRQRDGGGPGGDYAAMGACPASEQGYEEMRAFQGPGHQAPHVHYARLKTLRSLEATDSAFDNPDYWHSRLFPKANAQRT
# testDescription: flow cytometry on SKBR3 cells, apparent Kd
Quick list: Kd per entry.
Output spec: scalar in nM, unitless text.

binder="huHER3-8v.1.00 antibody (antibody, V domains shown, Recombinant humanized antibody with human constant regions; also called huHER3-8 naked antibody) VH: QVQLQESGPGLVKPSQSLSLTCTVTGSSITSDYAWNWIRQHPGNKLEWMGFISYSGSTSYNPSLKSRISITRDTSKNQFFLHLSSVTAADTATYYCSRRLGRLYYFDYWGQGTLLTVSS VL: EIVMTQSPATLSVTPGDRVSLSCRASQSINDYLHWYQQKPGQSPRLLIKFASHSISGIPDRFSGSGSGSDFTLTISSVEPEDVGVYYCQNGHSFPWTFGGGTKLEIKR" measuredquantity=Kd unitofmeasure=nM reading=0.14
binder="huHER3-8-PEG4-mal-DM1 conjugate (antibody, V domains shown, PEG4-mal-DM1 maytansinoid linked to the antibody, 3.5-4 maytansinoid molecules per antibody; attachment residues and chain not stated, Immunoconjugate of huHER3-8 (v.1.00) with human constant regions; also called huHER3-8-PEG-mal-DM1; huHER3-8-PEG4-Mal-DMl) VH: QVQLQESGPGLVKPSQSLSLTCTVTGSSITSDYAWNWIRQHPGNKLEWMGFISYSGSTSYNPSLKSRISITRDTSKNQFFLHLSSVTAADTATYYCSRRLGRLYYFDYWGQGTLLTVSS VL: EIVMTQSPATLSVTPGDRVSLSCRASQSINDYLHWYQQKPGQSPRLLIKFASHSISGIPDRFSGSGSGSDFTLTISSVEPEDVGVYYCQNGHSFPWTFGGGTKLEIKR" measuredquantity=Kd unitofmeasure=nM reading=0.27
binder="huHER3-8-SMCC-DM1 conjugate (antibody, V domains shown, SMCC-DM1 maytansinoid linked to the antibody, 3.5-4 DM1 molecules per antibody; attachment residues and chain not stated, Immunoconjugate of huHER3-8 (v.1.00) with human constant regions; also called huHER3-8-SMCC-DMl) VH: QVQLQESGPGLVKPSQSLSLTCTVTGSSITSDYAWNWIRQHPGNKLEWMGFISYSGSTSYNPSLKSRISITRDTSKNQFFLHLSSVTAADTATYYCSRRLGRLYYFDYWGQGTLLTVSS VL: EIVMTQSPATLSVTPGDRVSLSCRASQSINDYLHWYQQKPGQSPRLLIKFASHSISGIPDRFSGSGSGSDFTLTISSVEPEDVGVYYCQNGHSFPWTFGGGTKLEIKR" measuredquantity=Kd unitofmeasure=nM reading=0.49

Now consider the entry below.
input: What value of measured Kd is listed for huHER3-8-SPDB-DM4 conjugate (antibody, V domains shown, SPDB-DM4 maytansinoid linked to the antibody, 3.5-4 DM4 molecules per antibody; attachment residues and chain not stated, Immunoconjugate of huHER3-8 (v.1.00) with human constant regions) VH: QVQLQESGPGLVKPSQSLSLTCTVTGSSITSDYAWNWIRQHPGNKLEWMGFISYSGSTSYNPSLKSRISITRDTSKNQFFLHLSSVTAADTATYYCSRRLGRLYYFDYWGQGTLLTVSS VL: EIVMTQSPATLSVTPGDRVSLSCRASQSINDYLHWYQQKPGQSPRLLIKFASHSISGIPDRFSGSGSGSDFTLTISSVEPEDVGVYYCQNGHSFPWTFGGGTKLEIKR ?
output: 0.29
